Assay: Absorption maximum after colour development in a photographic silver halide layer according to Use Example I
Type: physicochemical
Conditions: pyrazolone coupling agents
readout.kind: Abs.max., second of two maxima (absorption maximum)

1) CCOP(=O)(CCCOc1cc(OCCCP(=O)(OCC)OCC)cc(C(=O)Nc2ccc(C(=O)NC3=NN(c4c(Cl)cc(Cl)cc4Cl)C(=O)C3)cc2)c1)OCC	546 nm
2) CCOP(=O)(CCCCCOc1cc(OCCCCCP(=O)(OCC)OCC)cc(C(=O)Nc2cccc(C(=O)NC3=NN(c4ccccc4)C(=O)C3)c2)c1)OCC	534 nm
3) CCCCC(CC)COP(=O)(CCCOc1cc(OCCCP(=O)(OCC(CC)CCCC)OCC(CC)CCCC)cc(C(=O)Nc2cccc(C(=O)NC3=NN(c4c(C)cc(C)cc4Cl)C(=O)C3)c2)c1)OCC(CC)CCCC (stereo not drawn)	534 nm
4) CCCCOP(=O)(CCCOc1cccc(C(=O)Nc2cccc(C(=O)NC3=NN(c4c(Cl)cc(Cl)cc4Cl)C(=O)C3)c2)c1)OCCCC	544 nm
5) CCOP(=O)(CCCOc1cccc(C(=O)Nc2ccc(NC3=NN(c4ccccc4)C(=O)C3)cc2)c1)OCC	528 nm
6) CCCCC(CC)COP(=O)(CCCOc1cccc(C(=O)Nc2cccc(C(=O)NC3=NN(c4c(C)cc(Cl)cc4Cl)C(=O)C3)c2)c1)OCC(CC)CCCC (stereo not drawn)	540 nm
7) CCCCOP(=O)(CCCOc1cccc(C(=O)Nc2cccc(C(=O)NC3=NN(c4ccccc4)C(=O)C3)c2)c1)OCCCC	534 nm
8) CCCCC(CC)COP(=O)(CCCOc1cccc(C(=O)Nc2cccc(C(=O)NC3=NN(c4nc5ccccc5s4)C(=O)C3)c2)c1)OCC(CC)CCCC (stereo not drawn)	583 nm
9) CCCCC(CC)COP(=O)(CCCOc1cccc(NC2=NN(c3cccc(Cl)c3)C(=O)C2)c1)OCC(CC)CCCC (stereo not drawn)	533 nm

====

Experiment: Absorption maximum after colour development in a photographic silver halide layer according to Use Example I
Type: physicochemical
Details: pyrazolone coupling agents
Experimental: The compounds of the formulae which follow are prepared according to methods which are in themselves known, from the corresponding 4-equivalentcoupling agents (the corresponding compounds with hydrogen in the position marked with *, in place of the substituents drawn). With regard to methods of manufacture, compare DT-OS or DT-AS 1,236,332, 2,043,271, 1,547,672 or 1,187,477. Next to the formula, the absorption maximum in nm is specified in each case (see footnote to Table I). ##SPC8## […]
readout.kind: Abs.max., second of two maxima (absorption maximum) (nm)

1. CC(C)OP(=O)(CCCOc1cccc(C(=O)Nc2ccc(C(=O)NC3=NN(c4c(Cl)cc(Cl)cc4Cl)C(=O)C3)cc2)c1)OC(C)C	543
2. CCCCC(CC)COP(=O)(CCCOc1ccc(C(=O)Nc2cccc(C(=O)NC3=NN(c4c(Cl)cc(Cl)cc4Cl)C(=O)C3)c2)c(OCCCP(=O)(OCC(CC)CCCC)OCC(CC)CCCC)c1)OCC(CC)CCCC (stereo not drawn)	540
3. CCCCOP(=O)(CCCOc1cc(OCCCP(=O)(OCCCC)OCCCC)cc(C(=O)Nc2cccc(NC3=NN(c4ccc(S(C)(=O)=O)cc4)C(=O)C3)c2)c1)OCCCC	540
4. CCOP(=O)(CCCOc1ccc(NC2=NN(c3cccc(Cl)c3)C(=O)C2)cc1)OCC	530
5. CCOP(=O)(CCCOc1cccc(C(=O)Nc2cccc(NC3=NN(c4ccccc4)C(=O)C3)c2)c1)OCC	530
6. CCCCOP(=O)(CCCOc1cc(OCCCP(=O)(OCCCC)OCCCC)cc(C(=O)Nc2cccc(C(=O)NC3=NN(c4cccc(Cl)c4)C(=O)C3)c2)c1)OCCCC	536
7. CCOP(=O)(CCCOc1cccc(C(=O)NC2=NN(c3c(Cl)cc(Cl)cc3Cl)C(=O)C2)c1)OCC	535
8. CCOP(=O)(CCCOc1cccc(C(=O)Nc2cccc(C(=O)NC3=NN(c4c(Cl)cc(Cl)cc4Cl)C(=O)C3)c2)c1)OCC	542
9. CCCCOP(=O)(CCCOc1cccc(C(=O)Nc2cccc(NC3=NN(c4c(Cl)cc(Cl)cc4Cl)C(=O)C3)c2)c1)OCCCC	532
10. CCCCOP(=O)(CCCOc1cccc(C(=O)Nc2cccc(NC3=NN(c4ccc(S(C)(=O)=O)cc4)C(=O)C3)c2)c1)OCCCC	538
11. CCOP(=O)(CCCc1ccc(NC2=NN(c3cccc(Cl)c3)C(=O)C2)cc1)OCC	532
12. CC(C)OP(=O)(CCCCCOc1cc(OCCCCCP(=O)(OC(C)C)OC(C)C)cc(C(=O)Nc2cccc(C(=O)NC3=NN(c4c(Cl)cc(Cl)cc4Cl)C(=O)C3)c2)c1)OC(C)C	544
